Recorded growth inhibition, one value per entry.
# protocol_details: NCI Yeast Anticancer Drug Screen. Data for the mec2-1 strain (AID 157)
# study_conditions: S. cerevisiae mec2-1 strain, at 50.0 µM, stronger effect = higher value
About 79,000 compounds went through this panel and 15% of them were active in at least one assay; those are over-represented in the sample as a whole.
Respond numerically; units are % and should not be typed.

INSERT INTO results (molecule, value_unit, result_value) VALUES
  ('O=C(O)c1ccccc1C(=O)OC1CC2C=CC1C21CC1 (stereo not drawn)', '%', -13.2);

Request: Tell me its growth inhibition given "COc1ccc2c(c1OC)C(=O)C2" as the entry.
Response: 12.1

Request: Give the reported value of growth inhibition for this record: "CCOC(=O)c1c(Br)c2c3ccccc3c3ccccc3n2c1C"
Response: -4.9

Request: Provide only the value of recorded growth inhibition for O=[N+]([O-])c1ccc(SN2CCCCC2CC2CCCCC2)c([N+](=O)[O-])c1 (stereo not drawn)
Response: -4.6

Request: Write down growth inhibition measured for item "NS(=O)(=O)c1cc2c(cc1Cl)NC(C(=O)NNC(=O)c1ccncc1)=NS2(=O)=O"
Response: -16.5

Request: Please look at this molecule and report its growth inhibition: CNC(=O)C(c1ccccc1)C(F)(F)F (stereo not drawn)
Response: 3.9

Request: Let me know recorded growth inhibition for "Nc1c(I)cc(C(=O)O)c(O)c1I" , thanks.
Response: -26.6

Request: Output growth inhibition of CCOc1ccc(C(C)(CC)c2cc3c(cc2OC)OCO3)cc1 (stereo not drawn)
Response: -14.3

Request: State, in one line, measured growth inhibition of "CN(C)CCCN=C(N)N"
Response: -20.9

Request: Please supply the value of reported growth inhibition for the item Nc1ncc2c(n1)-c1ccccc1OC2N1CCOCC1 (stereo not drawn)
Response: 2.15

Request: Complete the entry with growth inhibition for "O=c1c(Br)nn(C(c2ccccc2)c2ccccc2)c(=O)n1C(c1ccccc1)c1ccccc1"
Response: 2.25

Request: Give growth inhibition for "COc1c(Cl)cc([N+](=O)[O-])cc1Cl"
Response: 0.15

Request: Retrieve growth inhibition measured for "CN(C)C(=S)Oc1ccc([N+](=O)[O-])cc1Cl" and print it.
Response: 6.95

Request: Entry CCc1ccc(NC(=S)NC(=O)C(C)Oc2ccccc2)cc1 (stereo not drawn) needs its growth inhibition filled in; supply it.
Response: 21.6

Request: Fill in growth inhibition for record "COc1cc(-c2ccc(N=Nc3ccc(N)nc3N)c(OC)c2)ccc1N=Nc1ccc(N)nc1N"
Response: -3.9

Request: Note growth inhibition for the molecule shown: "N#CC(OC(=O)c1cccc(C(=O)OC(C#N)(C(F)(F)F)C(F)(F)F)c1Sc1ccccc1)(C(F)(F)F)C(F)(F)F"
Response: 13.8

Request: Retrieve growth inhibition measured for "CCc1nc(N)nc(N)c1-c1ccc(Cl)c([N+](=O)[O-])c1" and print it.
Response: 4.95

Request: // Input: "CN(CC(=O)NC(=O)c1ccccc1)c1ccccc1" . Output its growth inhibition only.
Response: -2

Request: Look up growth inhibition of "CC(C)[Si]1(C(C)C)N([Si](C)(C)F)[Si](C(C)C)(C(C)C)N1[Si](C)(C)F" and report it.
Response: 6.25

Request: Retrieve growth inhibition measured for "COc1cc(COC(=O)Nc2ccccc2F)cc(OC)c1OC" and print it.
Response: -19.1

Request: Quickly give me recorded growth inhibition for "O=S(=O)(c1ccccc1)N1C[C@@H]2[C@H](C1)[C@H]1C=C[C@@H]2C1"
Response: -12.3

Request: Identify measured growth inhibition corresponding to "C=CCOC(=O)c1c(Cl)c(Cl)c(Cl)c(Cl)c1C(=O)O"
Response: 7.85

Request: Look up and state reported growth inhibition for O=C(C1OC1c1ccccc1)C1OC1c1ccccc1 (stereo not drawn)
Response: 10.2

// provenance: PubChem BioAssay (NCI)
